# Subject of test: L858R/T790M/C797S EGFR (Homo sapiens, UniProt P00533, C797S/L858R/T790M)
# Construct: expressed in transfected cells; host or cells: H1975 clone #25 (lentiviral over-expression, endogenous EGFR knocked out by sgRNA)
# Sequence (P00533 25-1210 T790M/C797S/L858R): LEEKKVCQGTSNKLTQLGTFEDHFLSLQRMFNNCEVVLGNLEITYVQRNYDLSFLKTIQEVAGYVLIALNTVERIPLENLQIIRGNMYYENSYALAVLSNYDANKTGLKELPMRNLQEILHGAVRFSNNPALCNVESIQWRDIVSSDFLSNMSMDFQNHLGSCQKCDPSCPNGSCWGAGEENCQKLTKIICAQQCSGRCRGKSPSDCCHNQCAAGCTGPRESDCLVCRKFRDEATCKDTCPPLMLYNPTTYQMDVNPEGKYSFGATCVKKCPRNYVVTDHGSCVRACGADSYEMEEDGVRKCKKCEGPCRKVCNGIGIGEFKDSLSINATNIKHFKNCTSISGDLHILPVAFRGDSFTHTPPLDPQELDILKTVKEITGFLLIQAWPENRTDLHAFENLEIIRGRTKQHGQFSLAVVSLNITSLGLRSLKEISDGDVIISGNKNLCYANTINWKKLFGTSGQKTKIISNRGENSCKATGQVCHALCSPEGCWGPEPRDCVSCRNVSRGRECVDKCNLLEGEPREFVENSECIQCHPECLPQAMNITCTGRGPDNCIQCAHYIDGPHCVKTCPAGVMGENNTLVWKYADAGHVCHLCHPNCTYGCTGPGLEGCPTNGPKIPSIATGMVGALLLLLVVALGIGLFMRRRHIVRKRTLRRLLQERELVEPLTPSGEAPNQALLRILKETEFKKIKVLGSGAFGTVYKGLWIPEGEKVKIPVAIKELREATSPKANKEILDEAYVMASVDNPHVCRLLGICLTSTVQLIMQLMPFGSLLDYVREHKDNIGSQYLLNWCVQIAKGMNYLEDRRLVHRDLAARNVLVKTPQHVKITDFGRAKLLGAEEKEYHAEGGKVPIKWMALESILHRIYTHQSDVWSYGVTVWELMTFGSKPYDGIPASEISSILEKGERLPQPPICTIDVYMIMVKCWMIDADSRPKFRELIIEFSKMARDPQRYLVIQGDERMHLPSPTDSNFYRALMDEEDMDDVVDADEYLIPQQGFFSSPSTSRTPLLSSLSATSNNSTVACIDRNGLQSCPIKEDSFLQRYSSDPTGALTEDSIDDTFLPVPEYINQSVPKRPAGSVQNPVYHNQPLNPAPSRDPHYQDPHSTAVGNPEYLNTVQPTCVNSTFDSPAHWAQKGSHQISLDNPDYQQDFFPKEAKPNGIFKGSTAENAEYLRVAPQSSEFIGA
# Procedure details: EGFR degradation HTRF assay in H1975-clone #25 (LTC) cells
# Assay type: cell-based
# Details: H1975 # 25-LTC (L858R/T790M/C797S), 16h treatment, HTRF
Define the label as true (1) when DC50 is strictly less than 0.6 nM and as false (0) in all remaining cases.

[
  {
    "Compound": "Cc1cc2cc(n1)-c1cnn(C)c1OCCC[C@@H](C)CN1/C(=N/C2=O)Nc2ccc(CN3CCC4(CC3)CN(CCc3cc(F)c([C@H]5CCC(=O)NC5=O)c(F)c3)C4)cc21",
    "Assigned label": "false (0)"
  },
  {
    "Compound": "COC[C@H]1CN(C(=O)[C@@H]2CCN(c3cc(F)c([C@H]4CCC(=O)NC4=O)c(F)c3)C2)CCN1Cc1ccc2c(c1)N1C[C@H](C)CCCOc3c(cnn3C)-c3cc(cc(C)n3)C(=O)/N=C/1N2",
    "Assigned label": "false (0)"
  },
  {
    "Compound": "Cc1cc2cc(n1)-c1cnn(C)c1OCCC[C@@H](C)CN1/C(=N/C2=O)Nc2ccc(C(=O)N(C)C3CCN(CCc4cc(F)c([C@H]5CCC(=O)NC5=O)c(F)c4)CC3(C)C)cc21 (stereo partly shown)",
    "Assigned label": "false (0)"
  },
  {
    "Compound": "Cc1cc2cc(n1)-c1cnn(C)c1OCCC[C@@H](C)CN1/C(=N/C2=O)Nc2ccc(C(=O)N(C)CCC3CCN(c4cc(F)c([C@H]5CCC(=O)NC5=O)c(F)c4)CC3)cc21",
    "Assigned label": "false (0)"
  },
  {
    "Compound": "COc1cc2cc(n1)-c1cnn(C)c1OCCC[C@@H](C)CN1/C(=N/C2=O)Nc2ccc(N3CCN(C4CCN(c5cc(F)c([C@H]6CCC(=O)NC6=O)c(F)c5)CC4)CC3)cc21",
    "Assigned label": "false (0)"
  },
  {
    "Compound": "Cc1cc2cc(n1)-c1cnn(C)c1OCCC[C@@H](C)CN1/C(=N/C2=O)Nc2ccc(C(=O)N(C)CCN3CCN(c4cc(F)c([C@H]5CCC(=O)NC5=O)c(F)c4)CC3)cc21",
    "Assigned label": "true (1)"
  },
  {
    "Compound": "Cc1cc2cc(n1)-c1cnn(C)c1OCCC[C@@H](C)CN1/C(=N/C2=O)Nc2ccc(CN3CC4(C3)CN(C(=O)[C@H]3CN(c5cc(F)c([C@H]6CCC(=O)NC6=O)c(F)c5)CC3(C)C)C4)cc21",
    "Assigned label": "false (0)"
  },
  {
    "Compound": "Cc1cc2cc(n1)-c1cnn(C)c1OCC[C@H]1C[C@@H]1CN1/C(=N/C2=O)Nc2ccc(N3CCN(C[C@H]4C[C@H](Nc5cc(F)c([C@H]6CCC(=O)NC6=O)c(F)c5)C4)CC3)cc21",
    "Assigned label": "false (0)"
  },
  {
    "Compound": "Cc1cc2cc(n1)-c1cnn(C)c1OCCC[C@@H](C)CN1/C(=N/C2=O)Nc2ccc(C(=O)N(C)[C@@H]3CCN(CCc4cc(F)c([C@H]5CCC(=O)NC5=O)c(F)c4)C[C@@H]3F)cc21",
    "Assigned label": "true (1)"
  },
  {
    "Compound": "Cc1cc2cc(n1)-c1cnn(C)c1OCCC[C@@H](C)CN1/C(=N/C2=O)Nc2ccc(C3CCN(C4CCN(c5cc(F)c([C@H]6CCC(=O)NC6=O)c(F)c5)CC4)CC3)cc21",
    "Assigned label": "false (0)"
  },
  {
    "Compound": "Cc1cc2cc(n1)-c1cnn(C)c1OCCC[C@@H](C)CN1/C(=N/C2=O)Nc2ccc(N3CCN(C4CCN(c5ccc(C6CCC(=O)NC6=O)nc5)CC4)CC3)cc21 (stereo partly shown)",
    "Assigned label": "true (1)"
  },
  {
    "Compound": "Cc1cc2cc(n1)-c1cnn(C)c1OCCC[C@@H](C)CN1/C(=N/C2=O)Nc2ccc(CN3CCN(C(=O)[C@H]4CN(c5cc(F)c([C@H]6CCC(=O)NC6=O)c(F)c5)CC4(C)C)CC3)cc21",
    "Assigned label": "false (0)"
  },
  {
    "Compound": "Cc1cc2cc(n1)-c1cnn(C)c1OCCC[C@@H](C)CN1/C(=N/C2=O)Nc2ccc(C(=O)NC3CN(CCc4cc(F)c([C@H]5CCC(=O)NC5=O)c(F)c4)C3)cc21",
    "Assigned label": "false (0)"
  },
  {
    "Compound": "Cc1cc2cc(n1)-c1cnn(C)c1OCCC[C@@H](C)CN1/C(=N/C2=O)Nc2ccc(C(=O)N(C)C3CCN(CCC4CN(c5cc(F)c([C@H]6CCC(=O)NC6=O)c(F)c5)C4)CC3)cc21",
    "Assigned label": "false (0)"
  },
  {
    "Compound": "Cc1cc2cc(n1)-c1cnn(C)c1OCCC[C@@H](C)CN1/C(=N/C2=O)Nc2ccc(CN3CCN(C(=O)[C@@H]4CCN(c5cc(F)c([C@H]6CCC(=O)NC6=O)c(F)c5)C4)CC3)cc21",
    "Assigned label": "false (0)"
  },
  {
    "Compound": "Cc1cc2cc(n1)-c1cnn(C)c1OCCC[C@@H](C)CN1/C(=N/C2=O)Nc2cc(F)c(C(=O)N(C)C3CCN(CCc4cc(F)c([C@H]5CCC(=O)NC5=O)c(F)c4)CC3)cc21",
    "Assigned label": "true (1)"
  }
]
